IC50 for Insulin-like growth factor 1 receptor (Homo sapiens) - collated from the literature.
experimentalReadout: IC50 (nM)

Would you please look over these solved cases?
compound | IC50 / nM
CCc1cc(Nc2ncc(Br)c(Nc3ccc(-c4ncc(OC)cn4)cc3P(C)(C)=O)n2)c(OC)cc1N1CCC(N2CCN(C)CC2)CC1 | 118
C#Cc1cnc(-c2ccc(Nc3nc(Nc4cc(C)c(N5CCC(N6CCN(C)CC6)CC5)cc4OC)ncc3Br)c(P(C)(C)=O)c2)cn1 | 104
C=CC(=O)Nc1cc(Nc2ncc(Cl)c(Nc3ccc4ccccc4c3)n2)c(OC)cc1N1CCCN(C)CC1 | 18.3
CCc1cc(Nc2ncc(Br)c(Nc3ccc(-c4ccccc4C#N)cc3P(C)(C)=O)n2)c(OC)cc1N1CCC(N2CCN(C)CC2)CC1 | 269
COc1cccc(OC)c1C1CC(N2CCCC2=O)c2cccc3c2N1CC3 (stereo not shown) | 2100

A = C=CC(=O)Nc1cc(Nc2ncc(Cl)c(Nc3ccc4ccccc4c3)n2)c(OC)cc1N(C)CCN(C)C
B = CCc1cc(Nc2ncc(Br)c(Nc3ccc(-c4ncc(C(C)C)cn4)cc3P(C)(C)=O)n2)c(OC)cc1N1CCC(N2CCN(C)CC2)CC1
Ask: Could you tell me which of A and B has the lower IC50 reading? Mark your selection by writing its label.
Result: A
(A: 31.9 nM, B: 223 nM)

a = N#C/C(=C\c1ccc2oc(=O)[nH]c2c1)C(=O)c1ccc(O)c(O)c1
b = O=C1CCCN1C1CC(c2cccc(OCc3ccccc3)c2)N2CCc3cccc1c32 (stereo not shown)
c = COc1cc(Nc2ncc(Br)c(Nc3ccc4nc(C5CC5)ccc4c3P(C)(C)=O)n2)c(C)cc1N1CCN(C2CCCC2)CC1
d = CCc1cc(Nc2ncc(Br)c(Nc3ccc(-c4nn(C)c5ncccc45)cc3P(C)(C)=O)n2)c(OC)cc1N1CCC(N2CCN(C)CC2)CC1
e = N#C/C(=C\c1ccc2oc(=O)[nH]c2c1)C(=O)c1ccc2[nH]c(=O)oc2c1
Ask: Order the 5 compounds from highest to lowest IC50. In your reply, arrange the labels in the requested order.
Result: e, b, d, a, c

A = CCc1cc(Nc2ncc(Cl)c(Nc3ccc(-c4cnn5c4CC(C)(C)C5)cc3P(C)(C)=O)n2)c(OC)cc1N1CCC(N2CCN(C)CC2)CC1
B = COc1cc(Nc2ncc(Br)c(Nc3ccc4nc(C5CC5)ccc4c3P(C)(C)=O)n2)c(C)cc1N1CCC(N(C)C)CC1
Ask: Could you tell me which of A and B has the lower IC50 reading? Mark your selection by writing its label.
Result: B

###

IC50 for Insulin-like growth factor 1 receptor (Homo sapiens, UniProt P08069) - collated from the literature.
experimentalReadout: IC50 (nM)

Would you please look over these solved cases?
compound | uom | IC50
COc1cc(N2CCN(C3CCCC3)CC2)c(C)cc1Nc1ncc(Br)c(Nc2ccc3nc(C4CC4)ccc3c2P(C)(C)=O)n1 | nM | 210
O=C1CCCN1C1CC(c2cc(F)cc(C(F)(F)F)c2)N2CCc3cccc1c32 (stereo not drawn) | nM | 10000
CC(C)Oc1ccc(NC(=O)/C=C/CN(C)C)cc1Nc1ncc(Cl)c(Nc2ccc3ccccc3c2)n1 | nM | 272
Cc1ccc(C2CC(N3CCCC3=O)c3cccc4c3N2CC4)cc1 (stereo not drawn) | nM | 2600

I = COc1cc(Nc2ncc(Br)c(Nc3ccc(-c4cnc(C5CC5)cn4)cc3P(C)(C)=O)n2)c(C)cc1N1CCOCC1
II = CCn1cc(-c2cc(Nc3ncc(Br)c(Nc4ccc(-c5cccc6cc[nH]c56)cc4P(C)(C)=O)n3)c(OC)cc2N2CCC(N3CCN(C)CC3)CC2)cn1
Ask: Given the listed records, identify the one among I and II with higher IC50. Mark your selection by writing its label.
Result: II

A = CN1CCN(c2ccc(C(=O)Nc3n[nH]c4ccc(S(=O)(=O)c5ccccc5)cc34)c(NC(=O)c3ccc[nH]3)c2)CC1
B = CCc1cc(Nc2ncc(Cl)c(Nc3ccc(-c4ccccc4)cc3P(C)(C)=O)n2)c(OC)cc1N1CCC(N2CCN(C)CC2)CC1
Ask: Could you tell me which of A and B has the lower IC50 reading? Mark your selection by writing its label.
Result: A
(A: 36 nM, B: 150 nM)
